ASSAY_TARGET: Integrin alpha-IIb/beta-3 (Homo sapiens, UniProt P05106+P08514)
Sequence (P05106 27-788 limits assumed): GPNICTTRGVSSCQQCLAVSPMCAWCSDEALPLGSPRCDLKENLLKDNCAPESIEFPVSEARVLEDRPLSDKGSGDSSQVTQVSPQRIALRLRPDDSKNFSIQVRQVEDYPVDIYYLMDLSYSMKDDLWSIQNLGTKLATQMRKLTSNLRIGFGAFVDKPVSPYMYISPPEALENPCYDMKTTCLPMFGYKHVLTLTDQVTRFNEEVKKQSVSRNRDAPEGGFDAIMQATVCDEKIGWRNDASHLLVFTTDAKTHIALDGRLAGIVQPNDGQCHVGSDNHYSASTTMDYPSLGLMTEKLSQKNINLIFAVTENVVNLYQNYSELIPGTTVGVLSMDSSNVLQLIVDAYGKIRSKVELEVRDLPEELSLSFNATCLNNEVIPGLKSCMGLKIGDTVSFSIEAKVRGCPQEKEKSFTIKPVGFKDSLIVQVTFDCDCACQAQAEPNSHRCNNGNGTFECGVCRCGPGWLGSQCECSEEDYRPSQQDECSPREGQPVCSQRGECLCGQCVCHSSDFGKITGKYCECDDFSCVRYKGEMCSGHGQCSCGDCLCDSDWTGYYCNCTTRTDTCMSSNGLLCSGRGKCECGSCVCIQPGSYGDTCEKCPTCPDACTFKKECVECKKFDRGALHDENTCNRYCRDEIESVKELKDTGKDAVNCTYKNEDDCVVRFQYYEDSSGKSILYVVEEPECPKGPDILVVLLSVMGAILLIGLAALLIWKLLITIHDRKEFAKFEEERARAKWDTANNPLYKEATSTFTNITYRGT
Sequence (P08514 32-887 limits assumed): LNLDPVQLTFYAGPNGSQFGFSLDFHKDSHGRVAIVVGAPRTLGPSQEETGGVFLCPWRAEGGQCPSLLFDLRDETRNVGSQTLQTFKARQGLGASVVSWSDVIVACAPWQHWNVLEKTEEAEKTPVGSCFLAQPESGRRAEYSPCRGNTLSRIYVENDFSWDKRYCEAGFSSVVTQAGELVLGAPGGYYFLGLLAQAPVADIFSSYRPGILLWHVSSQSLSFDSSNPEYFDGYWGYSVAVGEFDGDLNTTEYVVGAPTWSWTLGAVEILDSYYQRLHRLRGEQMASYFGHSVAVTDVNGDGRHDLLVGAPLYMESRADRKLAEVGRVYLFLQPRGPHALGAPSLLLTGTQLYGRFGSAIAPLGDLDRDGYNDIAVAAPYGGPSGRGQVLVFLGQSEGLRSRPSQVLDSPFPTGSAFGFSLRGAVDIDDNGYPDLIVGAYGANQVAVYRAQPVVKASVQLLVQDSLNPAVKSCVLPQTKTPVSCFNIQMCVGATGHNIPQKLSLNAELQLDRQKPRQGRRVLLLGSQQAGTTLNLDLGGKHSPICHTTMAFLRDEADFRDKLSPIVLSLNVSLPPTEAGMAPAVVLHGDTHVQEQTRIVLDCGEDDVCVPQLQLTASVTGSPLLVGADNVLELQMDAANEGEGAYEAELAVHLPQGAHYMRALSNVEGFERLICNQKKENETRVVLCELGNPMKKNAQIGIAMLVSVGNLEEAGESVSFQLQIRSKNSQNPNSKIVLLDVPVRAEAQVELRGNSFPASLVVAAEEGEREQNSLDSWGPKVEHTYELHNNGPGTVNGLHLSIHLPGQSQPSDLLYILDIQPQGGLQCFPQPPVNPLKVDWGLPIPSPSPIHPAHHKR
Sequence (P08514 891-1039 limits assumed): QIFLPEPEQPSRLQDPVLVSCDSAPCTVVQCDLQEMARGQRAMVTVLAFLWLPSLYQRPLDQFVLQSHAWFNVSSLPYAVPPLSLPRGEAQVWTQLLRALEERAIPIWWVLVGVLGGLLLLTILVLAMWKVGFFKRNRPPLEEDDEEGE
ASSAY_NAME: Inhibition of fibrinogen binding to purified Fibrinogen Receptor preparation in enzyme-linked immunosorbent assay (ELISA)
Format: protein-complex assay
REPORTED_PROPERTY: pIC50
Numbers only, as −log10 of the molar value.

Determine its reported pIC50: N=C(N)c1ccc2oc(C(=O)NCCCCCCCC(=O)O)cc2c1 5.48

----------
ASSAY_TARGET: Integrin alpha-IIb/beta-3 (Homo sapiens, UniProt P05106+P08514)
ASSAY_NAME: Antagonism of fibrinogen binding to a purified human fibrinogen receptor preparation.
Format: protein-complex assay
Would you kindly list pIC50 for each of these compounds?
Numbers only, as −log10 of the molar value.

Before answering, review these 8 worked examples.
COMPOUND: CCCCCCC(CCCCNC(=O)c1cc2cc(C(=N)N)ccc2[nH]1)CC(=O)O (centres undefined)
ASSAY_TARGET: Integrin alpha-IIb/beta-3 (Homo sapiens, UniProt P05106+P08514)
pIC50: 6.23

COMPOUND: CN(CCCCCCC(=O)O)C(=O)c1cc2cc(C(=N)N)ccc2[nH]1
ASSAY_TARGET: Integrin alpha-IIb/beta-3 (Homo sapiens, UniProt P05106+P08514)
pIC50: 6.47

COMPOUND: CCC(CCCCCNC(=O)c1cc2cc(C(=N)N)ccc2[nH]1)C(=O)O (centres undefined)
ASSAY_TARGET: Integrin alpha-IIb/beta-3 (Homo sapiens, UniProt P05106+P08514)
pIC50: 4.57

COMPOUND: N=C(N)c1ccc2[nH]c(C(=O)NCC(=O)NCCCC(=O)O)cc2c1
ASSAY_TARGET: Integrin alpha-IIb/beta-3 (Homo sapiens, UniProt P05106+P08514)
pIC50: 5.00

COMPOUND: N=C(N)c1ccc(OCC(=O)NCCCCCCC(=O)O)cc1
ASSAY_TARGET: Integrin alpha-IIb/beta-3 (Homo sapiens, UniProt P05106+P08514)
pIC50: 5.96

COMPOUND: Cn1c(C(=O)NCCCCCCC(=O)O)cc2cc(C(=N)N)ccc21
ASSAY_TARGET: Integrin alpha-IIb/beta-3 (Homo sapiens, UniProt P05106+P08514)
pIC50: 5.54

COMPOUND: N=C(N)c1ccc2cc(C(=O)NCCCCCCC(=O)O)oc2c1
ASSAY_TARGET: Integrin alpha-IIb/beta-3 (Homo sapiens, UniProt P05106+P08514)
pIC50: 5.96

COMPOUND: N=C(N)c1ccc2[nH]c(C(=O)NCCCCC(CC(=O)O)c3ccccc3)cc2c1 (centres undefined)
ASSAY_TARGET: Integrin alpha-IIb/beta-3 (Homo sapiens, UniProt P05106+P08514)
pIC50: 6.34

We now examine a further compound.
Answer with reported pIC50 of N=C(N)c1ccc2oc(C(=O)NCCCCCC(=O)O)cc2c1 5.64

All values here come from ChEMBL document CHEMBL1130135.
